# study-target: Solute carrier family 2, facilitated glucose transporter member 1 (Homo sapiens)
# protocol-text: ST_JUDE_LEISH: Cytotoxicity at 2uM final concentration against transgenic Leishmania Mexicana promastigotes LmGLUT1 that are glucose transport deficient and complemented with the human glucose transporter GLUT1. Activity is measured by DNA content using SYBR green in vitro
# Type: functional
# inhibition values compiled below
Return type: number; implicit unit %.

Consider the following illustrative entries.
COc1ccc(CNCCc2cccs2)cc1-c1ccc(S(=O)(=O)NCCN2CCCC2)cc1    5.85
CCN(CC)CCN(Cc1ccc(-c2ccc(C(F)(F)F)cc2)cc1)C(=O)Cn1c(CCc2cccc(F)c2F)nc(=O)c2sccc21    0.1
NCc1ccc(CNCc2ccc(-c3ccc(-c4nc5cc(C(F)(F)F)ccc5[nH]4)s3)cc2)cc1    0.59
N#Cc1ccc(-c2ccc(C(=O)NCCCCN3CCC(c4nc5ccccc5[nH]4)CC3)cc2)cc1    2.16

Query: Sample OC1=C2C(=Nc3ccccc3SC2c2cccs2)c2ccccc21 (stereo unspecified) — what was its inhibition?
Reply: 12.2

Query: Sample COc1ccc(Cc2nc3c(n2C(C)=O)SC(c2ccc(Cl)c(Cl)c2)=NN3C(C)=O)cc1 — what was its inhibition?
Reply: 0.08

====

# study-target: Glucose transporter (Leishmania mexicana)
# protocol-text: ST_JUDE_LEISH: Cytotoxicity at 2uM final concentration against transgenic Leishmania Mexicana promastigotes LmGT2 that are glucose transport deficient and complemented with the L. Mexicana glucose transporter 2. Activity is measured by DNA content using SYBR green in vitro
# Assay type: functional
readout-label: inhibition (%)
Return type: number; implicit unit %.

Consider the following illustrative entries.
CCCCN(C)CC#Cc1ccc(-c2ccc3[nH]c(C)c(Br)c(=O)c3c2)cn1    8.6
O=C(/C=C/c1ccc(Cl)cc1)Nc1ccc2nc(CN3CCCC3)ccc2c1    5.54
O=C(Nc1ccc(OC2CCN(Cc3ccsc3)CC2)c(Cl)c1)c1ccc(F)cc1    2.62
CC(=O)Nc1ccc(S(=O)(=O)N2CCN(c3nc(NC4CCCC4)c4ccccc4n3)CC2)cc1    2.94
C[C@@]12C[C@@H](Nc3nc(NCCc4ccc(O)cc4)nc(N4CCNCC4)n3)C[C@@H](C1)c1cccc(Cl)c1O2    2.14

# input for lookup
Query: Sample O=C(N[C@H]1CCN(CCc2ccc(O[C@H]3CCNC3)c(Cl)c2)C1)c1ccc(Cl)c(Cl)c1 — what was its inhibition?
Reply: 3.35

====

# study-target: Solute carrier family 2, facilitated glucose transporter member 1 (Homo sapiens)
# protocol-text: ST_JUDE_LEISH: Cytotoxicity at 2uM final concentration against transgenic Leishmania Mexicana promastigotes LmGLUT1 that are glucose transport deficient and complemented with the human glucose transporter GLUT1. Activity is measured by DNA content using SYBR green in vitro
# Type: functional
readout-label: inhibition (%)
Return type: number; implicit unit %.

Consider the following illustrative entries.
CSc1ccc(CN2CCC(NC(=O)c3ccc(-c4ccc(N(C)C)cc4)s3)CC2)cc1    1.5
c1cc(CNCc2ccc3c(c2)OCO3)cc(-c2cccc(CNc3ccc4ncccc4c3)c2)c1    0.81
CC12CN3CC(C)(CN(C1)C3c1cc(Br)ccc1O)C2O (stereo not given)    -3.78
COc1ccc(C(C(=O)NC2CCN(C[C@H](O)c3ccnc4ccc(OC)cc34)CC2)N2CCN(c3ccc(Cl)c(Cl)c3)CC2)cc1 (stereo not given in full)    -0.26

Query: Sample CN(C)CCc1coc2ccc(C(=O)Nc3ccc(-c4ccc(O)cc4)cc3)cc12 — what was its inhibition?
Reply: 4.69

The origin of these recorded values is ChEMBL document CHEMBL3433997.
